The origin of these recorded values is patent US20170240539A1.

Target: PAR-1 receptor (Homo sapiens, UniProt P25116)
Construct: endogenous in cells
Sequence (P25116 22-425): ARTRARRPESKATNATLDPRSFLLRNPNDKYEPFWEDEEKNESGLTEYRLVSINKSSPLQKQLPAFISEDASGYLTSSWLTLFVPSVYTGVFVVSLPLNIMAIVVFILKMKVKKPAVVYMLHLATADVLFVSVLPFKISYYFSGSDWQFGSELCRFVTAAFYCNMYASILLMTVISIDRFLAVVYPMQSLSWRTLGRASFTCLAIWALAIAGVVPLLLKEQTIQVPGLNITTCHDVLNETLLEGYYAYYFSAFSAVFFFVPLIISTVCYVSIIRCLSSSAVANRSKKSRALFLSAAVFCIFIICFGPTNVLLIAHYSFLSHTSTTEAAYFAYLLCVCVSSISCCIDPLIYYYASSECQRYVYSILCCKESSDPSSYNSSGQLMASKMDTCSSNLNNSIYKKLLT
Test: PAR-1 FLIPR Assay
Details: HEK 293 cells, FLIPR calcium-5 dye; inhibition of signal from PAR1 selective receptor-activating peptide at 80% activation concentration (1.4-2.0 uM); compound incubated 30 minutes at 25 degrees
Kindly supply the reported IC50 values for the records listed here.
Please reply with the bare figure in nM and do not write the unit itself.

// returns reported IC50 for input "C[C@@H]1[C@H]2[C@@H](/C=C/c3ccc(-c4cccc(F)c4)cn3)[C@H](C)C(F)(F)C[C@H]2S(=O)(=O)N1C(=O)OC(C)(C)C" 383

Further, for "COc1ncccc1-c1ccc(/C=C/[C@@H]2[C@@H]3[C@@H](C)NS(=O)(=O)[C@@]3(CC(N)=O)CC(F)(F)[C@H]2C)nc1" ? 337

Queued: "C[C@H]1NS(=O)(=O)[C@]2(C)CC(F)(F)[C@@H](C)[C@H](/C=C/c3ccc(-c4cccnc4C#N)cn3)[C@H]12" 12

Try "CCOC(=O)C[C@@]12CC(F)(F)[C@@H](C)[C@H](/C=C/c3ccc(-c4ccccc4C#N)cn3)[C@@H]1[C@@H](C)N(C(=O)OC(C)(C)C)S2(=O)=O" next. 54

Note, next up: "CC(=O)N1[C@H](C)[C@H]2[C@@H](/C=C/c3ccc(-c4ccccc4C#N)cn3)[C@H](C)C(F)(F)C[C@H]2S1(=O)=O" 483

Quick one: "CC[C@@H]1CC[C@@H]2[C@H]([C@H]1/C=C/c1ccc(-c3ccccc3C#N)cn1)[C@@H](C)N(CCO)S2(=O)=O" 540

Okay, and "CC[C@@H]1CC[C@@H]2[C@H]([C@H]1/C=C/c1ccc(-c3ccccc3C#N)cn1)[C@@H](C)NS2(=O)=O" ? 0.97

And "Cc1nc(/C=C/[C@@H]2[C@H]3[C@@H](CC(F)(F)[C@H]2C)S(=O)(=O)N[C@@H]3C)ccc1-c1cccnc1C#N" ? 41

Thanks! And "C[C@H]1NS(=O)(=O)[C@]2(CC(N)=O)CC(F)(F)[C@@H](C)[C@H](/C=C/c3ccc(-c4cccnc4C#N)cn3)[C@H]12" ? 89

Same question for "C[C@H]1NS(=O)(=O)[C@]2(CC(N)=O)CC(F)(F)[C@@H](C)[C@H](/C=C/c3ccc(-c4cccc(F)c4)cn3)[C@H]12" please. 5

And "C[C@H]1NS(=O)(=O)[C@]2(CC(=O)O)CC(F)(F)[C@@H](C)[C@H](/C=C/c3ccc(-c4ccccc4C#N)cn3)[C@H]12" ? 12

Next up: "COc1ncccc1-c1ccc(/C=C/[C@@H]2[C@@H]3[C@@H](C)N(C(=O)OC(C)(C)C)S(=O)(=O)[C@]3(CC(N)=O)CC(F)(F)[C@H]2C)nc1" 110
